molecular target: human integrin αvβ6 (Homo sapiens (Human), UniProt P06756+P18564); test: Proximity-based integrin receptor binding assay (ALPHASCREEN) for inhibitor potency; conditions: inhibition of binding of TGF-b1 LAP to human integrin αvβ6; values given in ranges
Sequence (P06756 31-992): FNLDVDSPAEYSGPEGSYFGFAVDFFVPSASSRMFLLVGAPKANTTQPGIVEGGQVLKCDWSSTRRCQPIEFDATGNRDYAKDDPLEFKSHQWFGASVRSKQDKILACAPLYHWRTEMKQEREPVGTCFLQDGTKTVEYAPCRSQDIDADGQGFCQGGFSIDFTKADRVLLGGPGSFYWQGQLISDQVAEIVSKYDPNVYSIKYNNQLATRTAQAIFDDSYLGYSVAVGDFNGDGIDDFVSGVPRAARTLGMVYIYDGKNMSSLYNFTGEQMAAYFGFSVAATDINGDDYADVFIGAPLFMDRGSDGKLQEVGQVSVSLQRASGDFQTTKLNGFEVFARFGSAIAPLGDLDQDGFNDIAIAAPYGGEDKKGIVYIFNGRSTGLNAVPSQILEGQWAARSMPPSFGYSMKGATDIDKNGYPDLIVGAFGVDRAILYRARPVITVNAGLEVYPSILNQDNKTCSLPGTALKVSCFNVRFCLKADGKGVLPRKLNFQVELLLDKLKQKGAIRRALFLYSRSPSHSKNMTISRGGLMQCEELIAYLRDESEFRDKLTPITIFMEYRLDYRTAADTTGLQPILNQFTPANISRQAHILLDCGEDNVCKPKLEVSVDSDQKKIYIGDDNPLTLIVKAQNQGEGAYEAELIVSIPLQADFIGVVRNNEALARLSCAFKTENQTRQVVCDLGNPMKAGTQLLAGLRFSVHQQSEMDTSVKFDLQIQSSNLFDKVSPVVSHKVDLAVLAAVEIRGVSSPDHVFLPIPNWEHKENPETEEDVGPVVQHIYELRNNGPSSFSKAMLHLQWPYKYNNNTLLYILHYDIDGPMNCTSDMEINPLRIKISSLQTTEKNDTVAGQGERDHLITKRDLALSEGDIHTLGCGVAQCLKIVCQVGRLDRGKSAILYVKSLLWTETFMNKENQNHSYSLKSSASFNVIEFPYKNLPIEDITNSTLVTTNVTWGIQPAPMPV
Sequence (P18564 22-707): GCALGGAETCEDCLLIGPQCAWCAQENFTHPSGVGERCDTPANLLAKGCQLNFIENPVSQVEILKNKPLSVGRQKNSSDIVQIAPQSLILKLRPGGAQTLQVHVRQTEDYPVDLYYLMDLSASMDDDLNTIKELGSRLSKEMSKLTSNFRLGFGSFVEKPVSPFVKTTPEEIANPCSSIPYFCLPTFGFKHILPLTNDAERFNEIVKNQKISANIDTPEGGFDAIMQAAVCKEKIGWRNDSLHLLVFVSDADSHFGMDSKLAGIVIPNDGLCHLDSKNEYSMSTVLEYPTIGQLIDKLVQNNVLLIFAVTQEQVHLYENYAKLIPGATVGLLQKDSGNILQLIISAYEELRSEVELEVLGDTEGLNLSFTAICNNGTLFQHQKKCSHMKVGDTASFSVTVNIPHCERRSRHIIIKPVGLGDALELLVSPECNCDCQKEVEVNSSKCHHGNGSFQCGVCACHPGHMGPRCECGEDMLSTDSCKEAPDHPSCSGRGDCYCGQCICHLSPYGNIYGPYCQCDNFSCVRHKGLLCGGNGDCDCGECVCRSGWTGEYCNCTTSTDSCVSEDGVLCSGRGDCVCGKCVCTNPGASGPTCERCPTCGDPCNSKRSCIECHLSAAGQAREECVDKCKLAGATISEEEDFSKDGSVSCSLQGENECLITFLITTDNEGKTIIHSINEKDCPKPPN
pIC50: −log10 of the molar value.
assay-readout: pIC50

compound="CC(=O)N1CC(C)(OC(=O)N[C@@H](CCO[C@H]2C[C@H](CCc3ccc4c(n3)NCCC4)C2)C(=O)O)C1 [Compound 129]" value="6.60 to 7.30"
compound="O=C(N[C@@H](CCO[C@H]1C[C@H](CCc2ccc3c(n2)NCCC3)C1)C(=O)O)c1ccc(F)c(F)c1 [Compound 29]" value="> 7.30"

## Task Assign pIC50 to the following record: CC(C)(C)OC(=O)N1CC[C@@H](OC(=O)N[C@@H](CCO[C@H]2C[C@H](CCc3ccc4c(n3)NCCC4)C2)C(=O)O)C1 [Compound 138]
## Result 6.60 to 7.30

## Task Assign pIC50 to the following record: O=C(O)C(CCO[C@H]1C[C@H](CCc2ccc3c(n2)NCCC3)C1)NC(=O)[C@@H](CO)c1ccccc1 (some centres unmarked) [Compound 42]
## Result 6.60 to 7.30

## Task Assign pIC50 to the following record: CC(C)N(C)C(=O)N[C@@H](CCO[C@H]1C[C@H](CCc2ccc3c(n2)NCCC3)C1)C(=O)O [Compound 120]
## Result > 7.30
